Quick reference: %Inh of the listed items.
Tested on: PIM2
details: concentration: 1 μM, replicates: in singlicate; n = 1;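 note: KINOMEscan kinase panel screen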

Some entries whose results are on file:
compound	target.desc	measured.quantity	observed.value
O=C1NC(=O)C(N2CCc3ccccc32)=C1c1ccccc1Cl [SB-373598]	PIM2	%Inh	9%
Nc1ncnc2[nH]c(-c3ccccc3)nc12 [AH5015]	PIM2	%Inh	0%

Now turn to the next compound.
Ask: Quick one: %Inh of Cc1ccc(C(=O)Nc2ccc(Nc3ccnc4cc(-c5ccccn5)ccc34)cc2O)cc1.Cl [GW440146] ?
Reply: 0%

----------
Test system: SGK2
details: concentration: 1 μM, replicates: in singlicate; n = 1
Quick reference: %Inh of the listed items.
# unit: % | format: bare number

compound	%Inh, %
Cc1cccc(-c2cc(Nc3ccncc3)c3ccccc3n2)n1	0
Cc1cccc(-c2nc(Nc3cccc(C(N)=O)c3)c3ccccc3n2)n1	0
COc1ccc(CNC(=O)NC2CCN(c3ccnc(Nc4cc(OC)c(OC)c(OC)c4)n3)C2)cc1 (centres unmarked)	0

Ask: Quick one: %Inh of "Cl.Oc1ccc(-c2nc(-c3ccccc3)[nH]c2-c2ccncc2)cc1" ?
Reply: 0

Ask: Quick one: %Inh of "Cn1ccc2ncnc(Oc3cccc(C(=O)Nc4ccccc4)c3)c21" ?
Reply: 2

----------
Test system: WNK3
details: concentration: 1 μM, replicates: in singlicate; n = 1
Quick reference: %Inh of the listed items.
# unit: % | format: bare number

molecule	%Inh [%]
Cc1ccc(NC(=O)Nc2cc(C(C)(C)C)nn2-c2ccccc2)cc1	13
Cn1cncc1-c1ccc2ncnc(Nc3ccc(OCc4ccccc4)cc3)c2c1	3

Ask: Quick one: %Inh of "O=C(Nc1ccccc1)Nc1cccc(Oc2ccc3nccn3n2)c1" ?
Reply: 0

Ask: Quick one: %Inh of "CN1C(=O)C(Nc2ccc(Cl)c(C(=O)O)c2)=C(c2ccc(Cl)cc2)C1=O" ?
Reply: 5

Ask: Quick one: %Inh of "CC(C)(C)c1ccc(C(=O)Nc2cn3cc(Cl)ccc3n2)cc1" ?
Reply: 0

Ask: Quick one: %Inh of "Cc1ccc(-c2cc(-c3c[nH]nc3-c3ccccn3)ccn2)cc1" ?
Reply: 53

Ask: Quick one: %Inh of "O=C1NC(=O)C(N2CCc3ccccc32)=C1c1ccccc1Cl" ?
Reply: 22

Ask: Quick one: %Inh of "Cl.NC(=O)c1cccc(Nc2nccc(Nc3ccc(Oc4cccc(Cl)c4)c(Cl)c3)n2)c1" ?
Reply: 15

Ask: Quick one: %Inh of "Fc1cc(Cl)ccc1Nc1ccnc2cc(-c3ccc(CN4CCCCC4)o3)ccc12" ?
Reply: 34

Ask: Quick one: %Inh of "Cl.O=C(Nc1cccc(-c2nn3ncccc3c2-c2ccnc(Nc3cccnc3)n2)c1)c1c(F)cccc1F" ?
Reply: 10

----------
Test system: YANK3
Construct: gene STK32C
details: concentration: 1 μM, replicates: in singlicate; n = 1
measured.quantity: %Inh (%)
# unit: % | format: bare number

Some entries whose results are on file:
molecule	measured.quantity	observed.value
Fc1cc(Cl)ccc1Nc1ccnc2cc(I)ccc12	%Inh	20
O=C(O)COc1ncnc2cc(-c3ccc4[nH]ncc4c3)sc12	%Inh	14
O=C(Nc1n[nH]c2nc(-c3nccs3)c(Br)cc12)C1CC1	%Inh	7
Cn1cncc1-c1ccc2ncnc(Nc3ccc(OCc4ccccc4)cc3)c2c1	%Inh	7
COc1cccc(NC(=O)NC2CCN(c3ccnc(Nc4ccc(F)cc4)n3)C2)c1 (stereo not drawn)	%Inh	0

Now turn to the next molecule.
Ask: Quick one: %Inh of "Cc1ccccc1-n1cnc2c(N)ncnc21" ?
Reply: 0

From: paper PMC5540273
